// data source = patent US20190127480A1

biological target: T1, Soluble heterodimeric CD3 protein (hCD3-epsilon/hCD3-delta) with a human Fc tag (hFcΔAdp/hFc) or a mouse Fc … (human, UniProt P07766 23-126; P04234 22-105); assay: SPR Biacore, 25 C, antibody-capture format
T1 construct: also called hCD3ε/δ; not shown: Fc tag: human (hFcΔAdp/hFc); which tag was used in Ta
T1 sequence (P07766 23-126 limits assumed, stated change not applied, chain 1 of 2): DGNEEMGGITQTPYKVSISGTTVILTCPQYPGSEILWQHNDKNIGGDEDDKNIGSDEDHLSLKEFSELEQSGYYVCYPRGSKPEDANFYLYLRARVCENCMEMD
T1 sequence (P04234 22-105 limits assumed, stated change not applied, chain 2 of 2): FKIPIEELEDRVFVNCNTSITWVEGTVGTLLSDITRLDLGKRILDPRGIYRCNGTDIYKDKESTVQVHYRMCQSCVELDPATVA
reported property: T½ (min)
Hi! Could you send only the number? It should be in min, unit omitted.

Q. Output measured T½ for this item: H2M2886N (antibody, V domains shown, Hybridoma antibody, human variable regions, mouse IgG2 Fc) VH: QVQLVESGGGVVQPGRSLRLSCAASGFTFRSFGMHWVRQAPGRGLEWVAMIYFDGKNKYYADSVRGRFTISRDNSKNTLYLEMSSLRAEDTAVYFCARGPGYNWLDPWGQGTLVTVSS VL: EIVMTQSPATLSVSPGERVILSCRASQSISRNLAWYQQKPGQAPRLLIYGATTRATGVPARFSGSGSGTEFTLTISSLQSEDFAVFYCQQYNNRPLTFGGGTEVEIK
A. 18

Q. Output measured T½ for this item: H2M2691N (antibody, V domains shown, Hybridoma antibody, human variable regions, mouse IgG2 Fc) VH: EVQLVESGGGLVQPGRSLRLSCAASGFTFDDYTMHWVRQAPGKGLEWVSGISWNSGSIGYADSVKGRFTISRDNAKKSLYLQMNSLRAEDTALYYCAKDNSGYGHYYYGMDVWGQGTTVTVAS VL: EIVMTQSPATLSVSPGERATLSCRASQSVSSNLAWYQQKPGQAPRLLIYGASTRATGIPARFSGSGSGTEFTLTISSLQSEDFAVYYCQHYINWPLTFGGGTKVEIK
A. 56

Q. Output measured T½ for this item: H2M2711N (antibody, V domains shown, Hybridoma antibody, human variable regions, mouse IgG2 Fc) VH: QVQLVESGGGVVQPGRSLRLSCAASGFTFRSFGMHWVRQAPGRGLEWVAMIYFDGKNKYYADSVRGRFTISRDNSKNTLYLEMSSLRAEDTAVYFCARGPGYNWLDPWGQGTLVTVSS VL: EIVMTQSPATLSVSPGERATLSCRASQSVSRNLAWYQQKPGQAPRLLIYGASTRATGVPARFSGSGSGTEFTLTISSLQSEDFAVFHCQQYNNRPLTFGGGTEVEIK
A. 15

Q. Output measured T½ for this item: H2M3547N (antibody, V domains shown, Hybridoma antibody, human variable regions, mouse IgG2 Fc) VH: EAQLVESGGGLVQPGRSLRLSCTTSGFTFDDYTMHWVRQAPGKGLEWISDISWNGGTKGYADSVKGRFTISRDNAKNSLYLQMDSLRGEDTALYYCVKDKSGYGHFYFGLDVWGQGTTVTVSS VL: DIQMTQSPSSLTASVGDRVTFTCRASQSISRHLSWYQQKPGKAPKLLIYAASSLESGVPSRFSGSGSGTDFTLTISSLHPEDFATYYCQQSYSNPPITFGQGTRLEIK
A. 33

Q. Output measured T½ for this item: H1M2712N (antibody, V domains shown, Mouse IgG1 Fc form) VH: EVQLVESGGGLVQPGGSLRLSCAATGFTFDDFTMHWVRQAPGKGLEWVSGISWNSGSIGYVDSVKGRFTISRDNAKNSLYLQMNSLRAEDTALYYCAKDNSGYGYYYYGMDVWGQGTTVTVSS VL: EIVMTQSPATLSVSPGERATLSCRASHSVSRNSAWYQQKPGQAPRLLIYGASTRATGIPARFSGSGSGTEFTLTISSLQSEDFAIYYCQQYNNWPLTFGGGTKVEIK
A. 53

Q. Output measured T½ for this item: H2M2708N (antibody, V domains shown, Hybridoma antibody, human variable regions, mouse IgG2 Fc) VH: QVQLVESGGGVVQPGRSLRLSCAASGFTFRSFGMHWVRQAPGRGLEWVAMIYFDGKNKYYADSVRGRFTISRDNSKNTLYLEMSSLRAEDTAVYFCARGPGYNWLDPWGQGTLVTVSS VL: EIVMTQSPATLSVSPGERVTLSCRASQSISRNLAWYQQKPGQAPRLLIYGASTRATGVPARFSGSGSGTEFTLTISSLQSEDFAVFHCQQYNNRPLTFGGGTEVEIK
A. 19

Q. Output measured T½ for this item: H2M3540N (antibody, V domains shown, Hybridoma antibody, human variable regions, mouse IgG2 Fc) VH: QVHLEESGGGVVQPGRSLRLSCSASGFTFSSYAMHWVRQAPGKGLEWVAVIWYDGTNKYYLDSVKGRFTISRDNSKNTLFLQMNSLRAEDTAVYYCARDRGSIITHWGQGTLVTVSS VL: DIQMTQSPSSLSASIGDRVTITCRASQNISSYLNWYQQKPGKAPKLLIYAASSLQSGVPSRFSGSGSGTDFTLTISSLQPEDFATYYCQQTYSTPPITFGQGTRLEIK
A. 19
